Task for the reader: assign each of the following compounds its reported Growth Rate.
test system: U2OS; test: Incucyte cell viability with U2OS; type: toxicity, cell-based; conditions: human, 6 h, 10 µM, compound concentration 10 uM, replicate number 2; note: unitless GR value; below 1 slowed growth and below 0 cell loss
Reply: number alone, nothing else.

Input line: What measured Growth Rate is associated with Cc1cc(S(=O)(=O)N2CC(C)(C)c3cc(-c4ccc(C(F)(F)F)cc4)ccc32)ccc1OCC(=O)O on U2OS?
Output line: 0.68

Input line: Growth Rate of O=C(Nc1cc(C(F)(F)F)ccc1N1CCCCC1)c1ccncc1 on U2OS?
Output line: 0.58

Input line: Quick check: Growth Rate on U2OS, item COC(=O)c1sccc1S(=O)(=O)Nc1ccc(Nc2ccccc2)cc1OC ?
Output line: 0.91

Input line: // map C=CC(=O)Nc1cc(-c2nn(C3CCC(N4CCN(C(C)=O)CC4)CC3)c3ncnc(N)c23)ccc1Oc1ccccc1 (stereo unspecified) to recorded Growth Rate (system: U2OS)
Output line: -0.6

Input line: Can you look up Growth Rate on U2OS for Nc1ncnc2[nH]c(-c3ccccc3)nc12 ?
Output line: 0.92

Input line: Request: Growth Rate, test system U2OS, entry NCC1CCC(CNc2nc(NCc3ccccc3OC(F)(F)F)ncc2[N+](=O)[O-])CC1 (stereo unspecified)
Output line: 0.71

Input line: Give Growth Rate (U2OS) of the following compound: C[C@@H]1OCC2(CCN(c3cnc(Sc4ccnc(N)c4Cl)c(N)n3)CC2)[C@@H]1N [BATOPROTAFIB]
Output line: 0.99

Input line: Lookup: Growth Rate / U2OS / O[C@]1(C(F)(F)F)CCCC[C@H]1Nc1ccc(F)cc1 [BAY-390]
Output line: 0.7

Input line: Param readout = Growth Rate; param system = U2OS; param query = CCCCC/C=C/C=C1/C(=O)C=C[C@@H]1C/C=C\CCCC(=O)O ; response: value
Output line: 0.82

Input line: Record lookup: for U2OS, what Growth Rate belongs to COc1ccc(N(C(=O)Nc2c(C)cccc2C)c2cc(Nc3ccc(N4CCN(C)CC4)cc3)ncn2)c(OC)c1 ?
Output line: 0.97

Input line: Find Growth Rate (U2OS) for the entry Cc1cc2c(-c3ccco3)cnc(N[C@@H]3CCN(C)C[C@H]3C(=O)NC3CCCCC3)c2[nH]c1=O [GSK789]
Output line: 0.89

Input line: Record lookup: for U2OS, what Growth Rate belongs to Cc1cc(Cn2c(N3CC4(CNC4)C3)nc3cc(Cl)cc(N4CCN(C)CC4)c32)cc(C)c1F ?
Output line: 0.64

Input line: I'm curious: which Growth Rate was measured for CN1CCN(c2ccnc(NCCc3ccccc3)n2)CC1 [TP-040n] tested on U2OS?
Output line: -0.72

Input line: # query: Growth Rate | item COc1ccc(OC(=O)N(CC(=O)O)Cc2ccc(OCCc3nc(-c4ccccc4)oc3C)cc2)cc1 [MURAGLITAZAR] | system: U2OS
Output line: 0.71

Input line: Missing value: Growth Rate, U2OS, entry Cc1ccc(-c2c(C(=O)CF)n(CCCO)c3ncnc(N)c23)cc1 . Fill in?
Output line: 0.44

Input line: Form entry - test system: U2OS; read-out: Growth Rate; compound: CCn1c(=O)c2c(C)c(C(=O)N3CCC(O)CC3)sc2n(CCC(F)(F)F)c1=O
Output line: 0.72

Input line: U2OS / Growth Rate / CS(=O)(=O)NCC[C@H](NC(=O)c1cncc2c1cnn2-c1ccc(F)cc1)c1ccnc(S(C)(=O)=O)c1 [BI 9307] : value?
Output line: 0.9

Input line: Look up Growth Rate with U2OS for this compound: O=C1COc2cc(C(=O)N(Cc3ccc(C(=O)Nc4ccncn4)cc3)C3CC3)ccc2N1
Output line: 0.77

Input line: # returns recorded Growth Rate (system: U2OS) for Cl.O=S(=O)(c1cccc2c(I)cccc12)N1CCCNCC1
Output line: 0.86

Input line: Lab request: please report Growth Rate under test system U2OS for Cc1ccc(NC(=O)c2ccc3c(c2)OCCO3)cc1NC(=O)c1ccc2nc(OCCN3CCCC3)ccc2c1
Output line: 0.35

Input line: Could you share what Growth Rate was measured for CCOC(=O)c1ccc(N2C(=O)C(O)=C(C(=O)c3ccc(OC)cc3)C2c2ccc(F)cc2)cc1 (stereo unspecified) , tested on U2OS?
Output line: 0.87

Input line: Form field: Growth Rate recorded for O=c1[nH]c(CS[C@H]2CC[C@H](O)CC2)nc2cc(OCC3CC3)cc(F)c12 with U2OS (enter value)
Output line: 0.82

Input line: Give recorded Growth Rate with U2OS for the following compound: CO[C@@H](C)CN1CC[C@]2(C)c3cc(O)ccc3C[C@H]1C2(C)C.Cl
Output line: 0.47

Input line: Item: CC(C1CC2CCC1C2)n1c(S)nnc1-c1ccco1 (stereo unspecified) Test system: U2OS Read-out: Growth Rate Value: ?
Output line: 0.22

Input line: Growth Rate of CC(C)(C)NC(=O)c1cncn1C1CCN(c2ccc(-c3nnc(C(F)(F)F)o3)cn2)CC1 on U2OS?
Output line: 0

Input line: Look up Growth Rate with U2OS for this compound: COC(=O)c1ccc2c(c1)NC(=O)/C2=C(\Nc1ccc(-c2nccn2C)cc1)c1ccccc1
Output line: 0.77

Input line: Provide the documented Growth Rate with U2OS as the system for CC(=O)Nc1nc2c(Oc3cc(-c4ccc(C(F)(F)F)cc4)ncn3)cccc2s1 [AMG-517]
Output line: 0.81

Input line: Recall the recorded Growth Rate for CC(C)(C)c1cnc(CSc2cnc(NC(=O)C3CCN(CC(=O)NCCOCCOCCOCCNc4cccc5c4C(=O)N(C4CCC(=O)NC4=O)C5=O)CC3)s2)o1 (stereo unspecified) with U2OS and state it.
Output line: 0.25

Input line: Give recorded Growth Rate with U2OS for the following compound: CC(C)(O)c1cn(-c2ccc(-c3cccc(S(C)(=O)=O)c3)cc2)c(C(C)(C)c2ccccc2Cl)n1 [BMS-779788]
Output line: 0.61

Input line: Short answer please: Growth Rate, U2OS, entry COc1cc(-c2nn([C@H]3CC[C@H](N4CCN(C(C)=O)CC4)CC3)c3ncnc(N)c23)ccc1NC(=O)c1cc2ccccc2n1C
Output line: 0.56

Input line: Form field: Growth Rate recorded for CNS(=O)(=O)c1ccc(N(C)C)c(Nc2ncnc3cc(OC)c(OC)cc23)c1 with U2OS (enter value)
Output line: 0.65

Input line: Record lookup: for U2OS, what Growth Rate belongs to c1ccc(Cn2c(N3CCNCC3)nc3ccccc32)cc1 [LERISETRON] ?
Output line: 0.64

Input line: Hi! What's the reported Growth Rate for CCOc1ccccc1C(=O)NCC1(N2CCN(CC)CC2)CCCCC1 on U2OS?
Output line: 0.56

Input line: Write down the reported Growth Rate of O=C(NC[C@@H]1[C@H]2CN(C(=O)OCc3cc(C(F)(F)F)cc(C(F)(F)F)c3)C[C@@H]12)c1ccc2[nH]nnc2c1 [BI 2545] , test system: U2OS.
Output line: -0.56

Input line: Provide value of Growth Rate for this record tested with U2OS: CN(C)C(=O)Cn1cc(-c2nc([C@@](C)(c3ccc(-c4cnc(N)nc4)cc3)C3CC3)no2)cn1 [BI 665915]
Output line: 0.71

Input line: Record O=C(Cc1ccccc1)Nc1nnc(N2C[C@H]3C[C@@H]2CN3c2cccnn2)s1 [A-446] : what is its Growth Rate with U2OS?
Output line: 0.43
